test: Intravenous/oral pharmacokinetics and tissue distribution in mice; format: in vivo; settings: female, ICR, mouse, po, 100 mg/kg p.o., plasma, read-out: Cmax, Plasma
property name: Cmax (ng/mL)

{"columns": ["compound", "property name", "measured number"],
 "data": [
  ["O=C(N[C@@H](Cc1ccccn1)C(=O)N[C@@H](CCc1ccccc1)B(O)O)c1cnccn1 [Compound 58]", "Cmax", 6910]
]}

###

target: HepG2 proteasome (Homo sapiens, UniProt P20618+P28074); assay: Cell-based proteasome CT-like peptidase inhibition assay (Proteasome-Glo)
property name: IC50

{"columns": ["compound", "property name", "result"],
 "data": [
  ["O=C(N[C@@H](Cc1ccc(O)cc1)C(=O)N[C@@H](CCc1ccccc1)B(O)O)c1cnccn1 [Compound 57]", "IC50", "533 nM"],
  ["CC(C)C[C@H](NC(=O)[C@@H](N)Cc1ccccc1)B(O)O [Compound 26]", "IC50", "80 nM"],
  ["CC(C)(C(=O)N[C@@H](Cc1ccccc1)C(=O)N[C@@H](CCC1CCCCC1)B(O)O)n1cccc1 [Compound 50]", "IC50", "> 500 nM"],
  ["O=C(N[C@@H](Cc1ccccc1)C(=O)N[C@@H](CCc1ccccc1)B(O)O)c1cnccn1 [Compound 32]", "IC50", "70 nM"],
  ["O=C(N[C@@H](Cc1ccccc1)C(=O)N[C@@H](CC1CCCCC1)B(O)O)c1cnccn1 (mixture of isomers) [Compound 29]", "IC50", "127 nM"],
  ["O=C(N[C@@H](Cc1ccccc1)C(=O)N[C@@H](Cc1ccccc1)B(O)O)c1cnccn1 [Compound 31]", "IC50", "50 nM"],
  ["CCCCC[C@H](NC(=O)[C@H](Cc1ccccc1)NC(=O)c1cnccn1)B(O)O [Compound 27]", "IC50", "30 nM"],
  ["O=C(N[C@@H](Cc1ccccc1)C(=O)N[C@@H](CCC1CCCCC1)B(O)O)c1cnccn1 [Compound 30]", "IC50", "500 nM"]
]}
